method-description: Inhibition of alpha-glucosidase (unknown origin)
Set-up: species or system Homo sapiens
reported-property: pIC50
One number for each entry, as −log10 of the molar value.

Bench note: what pIC50 did CC(N)C(=O)N1CCN(C(=O)[C@]23CC[C@@H](C)[C@H](C)[C@H]2C2=CC[C@@H]4[C@@]5(C)C[C@@H](O)[C@H](O)[C@@](C)(CO)[C@@H]5CC[C@@]4(C)[C@]2(C)CC3)CC1 (stereo partly specified) show?
2.92

----------
Tested on: K562
method-description: Cytotoxicity against human K562 cells assessed as reduction in cell viability incubated for 24 hrs by MTT assay
Type: functional, cell-based
assay-context: K562, 24 h
reported-property: IC50 (µM)
Numbers only, in µM.

Bench note: what IC50 did C[C@H]1[C@H](C)CC[C@]2(C(=O)OCc3ccccc3)CC[C@]3(C)C(=CC[C@@H]4[C@@]5(C)C[C@@H](O)[C@H](O)[C@@](C)(CO)[C@@H]5CC[C@]43C)[C@H]12 show?
4.1

Taken from ChEMBL document CHEMBL6134814.
